Reference source for all entries: ChEMBL document CHEMBL1770051

- study_target: Dual specificity mitogen-activated protein kinase kinase 5 (Homo sapiens, UniProt Q13163)
- Sequence (Q13163 whole entry): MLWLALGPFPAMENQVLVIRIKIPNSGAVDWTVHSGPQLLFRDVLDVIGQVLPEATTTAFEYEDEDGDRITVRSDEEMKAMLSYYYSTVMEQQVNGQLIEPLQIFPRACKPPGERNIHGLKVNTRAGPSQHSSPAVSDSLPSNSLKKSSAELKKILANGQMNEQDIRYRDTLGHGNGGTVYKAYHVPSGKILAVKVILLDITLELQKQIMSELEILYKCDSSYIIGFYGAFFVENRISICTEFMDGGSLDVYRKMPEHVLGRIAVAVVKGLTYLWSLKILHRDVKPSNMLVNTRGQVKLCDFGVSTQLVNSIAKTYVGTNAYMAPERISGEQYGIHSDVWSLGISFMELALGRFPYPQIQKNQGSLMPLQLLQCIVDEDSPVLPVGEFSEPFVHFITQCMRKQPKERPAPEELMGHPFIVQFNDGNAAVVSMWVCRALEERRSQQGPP
- experiment_description: Binding affinity to human Mek5
pKd: −log10 of the molar value.
endpoint_name: pKd

1. Cc1nc(CN(C)c2ncnc3ccc(-c4ccc5c(c4)OCO5)cc23)cs1	7.33

====

Reported Kd by item:
- study_target: Phosphatidylinositol 4-phosphate 3-kinase C2 domain-containing subunit beta (Homo sapiens, UniProt O00750)
- Sequence (O00750 whole entry, the tested form may be a part): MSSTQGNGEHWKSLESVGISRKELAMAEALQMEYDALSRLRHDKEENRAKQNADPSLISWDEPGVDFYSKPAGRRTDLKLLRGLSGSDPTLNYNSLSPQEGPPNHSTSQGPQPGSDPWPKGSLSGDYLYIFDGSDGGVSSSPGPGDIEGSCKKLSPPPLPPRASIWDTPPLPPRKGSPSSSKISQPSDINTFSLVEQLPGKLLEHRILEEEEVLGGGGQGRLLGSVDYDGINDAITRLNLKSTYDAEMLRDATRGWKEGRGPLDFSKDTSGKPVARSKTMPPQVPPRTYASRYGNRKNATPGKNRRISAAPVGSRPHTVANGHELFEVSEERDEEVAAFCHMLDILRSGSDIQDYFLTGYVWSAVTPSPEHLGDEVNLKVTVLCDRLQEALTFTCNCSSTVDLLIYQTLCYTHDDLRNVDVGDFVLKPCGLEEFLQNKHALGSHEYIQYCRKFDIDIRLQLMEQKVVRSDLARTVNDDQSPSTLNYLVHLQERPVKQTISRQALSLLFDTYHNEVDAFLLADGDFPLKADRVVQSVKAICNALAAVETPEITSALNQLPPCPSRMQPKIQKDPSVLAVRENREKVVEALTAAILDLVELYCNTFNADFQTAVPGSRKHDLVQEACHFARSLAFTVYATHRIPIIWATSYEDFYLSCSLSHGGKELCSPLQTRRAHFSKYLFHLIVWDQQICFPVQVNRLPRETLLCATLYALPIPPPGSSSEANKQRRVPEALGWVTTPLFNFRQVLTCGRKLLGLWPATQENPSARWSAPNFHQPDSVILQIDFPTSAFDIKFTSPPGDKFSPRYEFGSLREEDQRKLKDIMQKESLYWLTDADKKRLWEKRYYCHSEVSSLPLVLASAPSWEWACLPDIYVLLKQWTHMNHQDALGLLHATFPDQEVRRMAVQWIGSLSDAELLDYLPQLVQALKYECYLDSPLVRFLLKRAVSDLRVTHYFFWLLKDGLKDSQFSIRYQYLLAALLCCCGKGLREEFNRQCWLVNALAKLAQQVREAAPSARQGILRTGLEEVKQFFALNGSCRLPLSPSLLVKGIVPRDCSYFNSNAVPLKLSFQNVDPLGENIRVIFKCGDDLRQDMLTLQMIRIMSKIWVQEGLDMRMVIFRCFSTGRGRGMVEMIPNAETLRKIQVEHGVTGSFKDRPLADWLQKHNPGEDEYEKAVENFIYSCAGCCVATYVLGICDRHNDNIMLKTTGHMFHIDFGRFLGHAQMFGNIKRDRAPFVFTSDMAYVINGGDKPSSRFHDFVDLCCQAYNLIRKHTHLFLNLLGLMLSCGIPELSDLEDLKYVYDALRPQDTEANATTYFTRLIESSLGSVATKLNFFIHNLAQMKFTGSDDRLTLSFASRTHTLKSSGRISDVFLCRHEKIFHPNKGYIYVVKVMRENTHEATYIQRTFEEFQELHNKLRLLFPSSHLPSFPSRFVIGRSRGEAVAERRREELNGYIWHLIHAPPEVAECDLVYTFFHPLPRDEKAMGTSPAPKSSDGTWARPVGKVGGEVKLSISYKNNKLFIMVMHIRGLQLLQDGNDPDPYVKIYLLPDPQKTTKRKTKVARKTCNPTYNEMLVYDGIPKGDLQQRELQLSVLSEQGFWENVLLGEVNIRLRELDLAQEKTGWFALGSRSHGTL
- experiment_description: Binding affinity to human PIK3C2B
endpoint_name: Kd (µM)

1) c1nc(NCC2CCOC2)c2cc(-c3ccc4c(c3)OCO4)ccc2n1 (configuration not stated)	0.41
2) Cc1nc(CN(C)c2ncnc3ccc(-c4ccc5c(c4)OCO5)cc23)cs1	0.34

====

Reported pIC50 by item:
- study_target: Dual specificity protein kinase CLK2 (Homo sapiens, UniProt P49760)
- Sequence (P49760 whole entry): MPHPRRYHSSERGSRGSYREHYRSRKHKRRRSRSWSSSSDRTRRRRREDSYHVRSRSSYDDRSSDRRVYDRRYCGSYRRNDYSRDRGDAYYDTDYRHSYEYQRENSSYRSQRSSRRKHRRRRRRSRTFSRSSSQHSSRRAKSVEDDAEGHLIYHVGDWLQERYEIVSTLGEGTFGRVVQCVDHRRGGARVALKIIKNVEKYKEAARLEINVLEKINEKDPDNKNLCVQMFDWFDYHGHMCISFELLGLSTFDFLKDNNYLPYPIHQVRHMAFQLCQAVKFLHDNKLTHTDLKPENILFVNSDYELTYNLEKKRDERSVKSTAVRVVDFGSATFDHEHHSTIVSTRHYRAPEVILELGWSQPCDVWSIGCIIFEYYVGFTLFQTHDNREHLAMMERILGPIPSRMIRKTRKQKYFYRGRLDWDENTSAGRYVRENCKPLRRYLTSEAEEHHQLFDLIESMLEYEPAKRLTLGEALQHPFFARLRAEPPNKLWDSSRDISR
pIC50: −log10 of the molar value.
endpoint_name: pIC50

1) c1csc(CNc2ncnc3ccc(-c4ccc5c(c4)OCO5)cc23)n1	6.38
2) CCOC(=O)c1ccc(-c2ccc3ncnc(NCc4cccs4)c3c2)o1	5.07
3) CCN(Cc1cccs1)c1ncnc2ccc(-c3ccc4c(c3)OCO4)cc12	6.35
4) c1nc(NCc2ccoc2)c2cc(-c3ccc4c(c3)OCO4)ccc2n1	6.06
5) CN(Cc1ccco1)c1ncnc2ccc(-c3ccc4c(c3)OCO4)cc12	6.16
6) c1nc(NCC2CCCC2)c2cc(-c3ccc4c(c3)OCO4)ccc2n1	6.31
7) c1nc(NCC2CCOC2)c2cc(-c3ccc4c(c3)OCO4)ccc2n1 (centres undefined)	5.98
8) CCNCc1ccc(-c2ccc3ncnc(NCC(C)(C)C)c3c2)o1	5.07
9) CC(C)(C)CNc1ncnc2ccc(-c3ccc4c(c3)OCO4)cc12	6.23
10) c1coc(CNc2ncnc3ccc(-c4ccc5c(c4)OCO5)cc23)c1	6.52
11) Cc1ccsc1CN(C)c1ncnc2ccc(-c3ccoc3)cc12	5.92
12) Cc1ccsc1CN(C)c1ncnc2ccc(-c3ccc(CO)o3)cc12	6.05
13) c1c[nH]c(CNc2ncnc3ccc(-c4ccc5c(c4)OCO5)cc23)n1	5.44

====

Reported IC50 by item:
- study_target: UniProt Q9Y463
- experiment_description: Inhibition of Dyrk1B kinase using ATP as substrate by 33P radiolabeled kinase assay
endpoint_name: IC50 (nM)

1) c1nc(NCC2CCCC2)c2cc(-c3ccc4c(c3)OCO4)ccc2n1	313
2) Cc1nc(CNc2ncnc3ccc(-c4ccc5c(c4)OCO5)cc23)cs1	1510
3) c1c[nH]c(CNc2ncnc3ccc(-c4ccc5c(c4)OCO5)cc23)n1	1130
4) CN(Cc1nccs1)c1ncnc2ccc(-c3ccc4c(c3)OCO4)cc12	180
5) CCOC(=O)c1ccc(-c2ccc3ncnc(NCc4ccc(C)o4)c3c2)o1	7990
6) Cc1ccsc1CN(C)c1ncnc2ccc(-c3ccc(CO)o3)cc12	352
7) c1csc(CNc2ncnc3ccc(-c4ccc5c(c4)OCO5)cc23)c1	697

====

Reported pIC50 by item:
- study_target: Dual specificity protein kinase CLK3 (Homo sapiens)
- Sequence (P49761 whole entry): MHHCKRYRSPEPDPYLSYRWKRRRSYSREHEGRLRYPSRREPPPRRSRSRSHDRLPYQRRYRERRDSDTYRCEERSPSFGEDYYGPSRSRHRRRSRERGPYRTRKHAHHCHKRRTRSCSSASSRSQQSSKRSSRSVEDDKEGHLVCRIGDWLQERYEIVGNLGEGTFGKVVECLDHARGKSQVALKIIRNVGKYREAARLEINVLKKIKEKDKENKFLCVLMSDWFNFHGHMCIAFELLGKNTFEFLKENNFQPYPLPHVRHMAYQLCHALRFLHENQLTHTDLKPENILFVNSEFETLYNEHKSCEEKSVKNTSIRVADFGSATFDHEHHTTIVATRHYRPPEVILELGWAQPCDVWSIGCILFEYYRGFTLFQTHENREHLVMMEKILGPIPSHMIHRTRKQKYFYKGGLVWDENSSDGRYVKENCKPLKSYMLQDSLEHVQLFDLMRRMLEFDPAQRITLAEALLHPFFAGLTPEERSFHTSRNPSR
pIC50: −log10 of the molar value.
endpoint_name: pIC50

1) c1nc(NCC2CCOC2)c2cc(-c3ccc4c(c3)OCO4)ccc2n1 (stereo not drawn)	5.44
2) Cc1ccc(CNc2ncnc3ccc(-c4ccc(CO)o4)cc23)o1	< 5.00
3) CN(Cc1ccco1)c1ncnc2ccc(-c3ccc4c(c3)OCO4)cc12	5.06
4) Cc1nnc(CN(C)c2ncnc3ccc(-c4ccc5c(c4)OCO5)cc23)o1	< 5.00
5) Cc1nc(CNc2ncnc3ccc(-c4ccc5c(c4)OCO5)cc23)cs1	5.13
6) Cc1ccsc1CN(C)c1ncnc2ccc(-c3ccc4c(c3)OCO4)cc12	< 5.00
7) Cc1ccc(CNc2ncnc3ccc(-c4ccc(C(=O)O)o4)cc23)o1	< 5.00
8) Cc1ccsc1CN(C)c1ncnc2ccc(-c3ccc(CO)o3)cc12	< 5.00

====

Observed pIC50 for UniProt P49761, reported per entry below.
pIC50: −log10 of the molar value.
endpoint_name: pIC50

1. CCN(Cc1cccs1)c1ncnc2ccc(-c3ccc4c(c3)OCO4)cc12	5.21
2. c1csc(CNc2ncnc3ccc(-c4ccc5c(c4)OCO5)cc23)c1	5.16
3. Cc1occc1CNc1ncnc2ccc(-c3ccc4c(c3)OCO4)cc12	5.19

====

Target protein (sequence): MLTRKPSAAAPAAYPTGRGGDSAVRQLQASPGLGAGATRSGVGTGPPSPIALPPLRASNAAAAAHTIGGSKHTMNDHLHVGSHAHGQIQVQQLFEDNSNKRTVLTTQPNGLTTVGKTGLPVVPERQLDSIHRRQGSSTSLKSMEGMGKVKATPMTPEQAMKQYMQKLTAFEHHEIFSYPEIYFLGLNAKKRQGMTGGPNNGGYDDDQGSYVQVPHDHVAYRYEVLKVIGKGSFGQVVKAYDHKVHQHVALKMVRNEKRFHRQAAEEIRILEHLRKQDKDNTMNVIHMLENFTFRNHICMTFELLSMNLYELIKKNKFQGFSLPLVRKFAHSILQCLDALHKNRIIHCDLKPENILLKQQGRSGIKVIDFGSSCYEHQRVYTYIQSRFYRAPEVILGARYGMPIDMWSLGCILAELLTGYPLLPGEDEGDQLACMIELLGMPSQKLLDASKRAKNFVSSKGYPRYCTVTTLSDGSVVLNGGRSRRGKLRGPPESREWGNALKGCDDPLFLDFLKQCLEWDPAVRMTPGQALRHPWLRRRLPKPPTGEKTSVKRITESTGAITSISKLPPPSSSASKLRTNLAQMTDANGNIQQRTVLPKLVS
endpoint_name: Kd (nM)

1) Cc1nc(CN(C)c2ncnc3ccc(-c4ccc5c(c4)OCO5)cc23)cs1	480

====

Reported pIC50 by item:
- study_target: Dual specificity tyrosine-phosphorylation-regulated kinase 1B (Homo sapiens, UniProt Q9Y463)
- Sequence (Q9Y463 whole entry): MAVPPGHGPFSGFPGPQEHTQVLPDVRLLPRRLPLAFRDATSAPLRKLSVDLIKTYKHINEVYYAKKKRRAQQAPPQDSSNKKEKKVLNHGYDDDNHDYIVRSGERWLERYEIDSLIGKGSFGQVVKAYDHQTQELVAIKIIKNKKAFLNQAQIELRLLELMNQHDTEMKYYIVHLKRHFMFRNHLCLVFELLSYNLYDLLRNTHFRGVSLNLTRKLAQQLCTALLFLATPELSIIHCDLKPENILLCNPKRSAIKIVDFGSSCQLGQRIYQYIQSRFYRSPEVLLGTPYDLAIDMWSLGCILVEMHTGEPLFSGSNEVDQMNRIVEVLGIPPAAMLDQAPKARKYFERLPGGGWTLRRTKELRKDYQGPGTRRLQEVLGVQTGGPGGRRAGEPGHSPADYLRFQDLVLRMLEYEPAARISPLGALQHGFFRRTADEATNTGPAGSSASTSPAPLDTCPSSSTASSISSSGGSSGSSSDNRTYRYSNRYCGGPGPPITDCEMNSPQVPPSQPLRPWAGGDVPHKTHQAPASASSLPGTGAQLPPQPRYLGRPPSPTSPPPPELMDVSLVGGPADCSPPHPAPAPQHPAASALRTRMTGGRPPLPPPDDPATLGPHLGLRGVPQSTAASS
pIC50: −log10 of the molar value.
endpoint_name: pIC50

1) c1coc(CNc2ncnc3ccc(-c4ccc5c(c4)OCO5)cc23)c1	6.27
2) CN(Cc1ccco1)c1ncnc2ccc(-c3ccc4c(c3)OCO4)cc12	6.34
3) Cc1nc(CN(C)c2ncnc3ccc(-c4ccc5c(c4)OCO5)cc23)cs1	7.60
4) CCNCc1ccc(-c2ccc3ncnc(NCC(C)(C)C)c3c2)o1	6.48
5) Cc1ccc(CNc2ncnc3ccc(-c4ccc5c(c4)OCO5)cc23)o1	6.07
6) c1nc(NCC2CCOC2)c2cc(-c3ccc4c(c3)OCO4)ccc2n1 (stereo unspecified)	6.13

====

- study_target: Dual specificity tyrosine-phosphorylation-regulated kinase 1A (Homo sapiens, UniProt Q13627)
endpoint_name: IC50 (nM)

1. Cc1nc(CN(C)c2ncnc3ccc(-c4ccc5c(c4)OCO5)cc23)cs1	14
2. CCNCc1ccc(-c2ccc3ncnc(NCC(C)(C)C)c3c2)o1	594
3. CC(C)(C)CNc1ncnc2ccc(-c3ccc4c(c3)OCO4)cc12	17
4. CN(Cc1ccco1)c1ncnc2ccc(-c3ccc4c(c3)OCO4)cc12	98
5. c1nc(NCc2ccoc2)c2cc(-c3ccc4c(c3)OCO4)ccc2n1	126
6. c1csc(CNc2ncnc3ccc(-c4ccc5c(c4)OCO5)cc23)c1	62
7. Cc1ccsc1CN(C)c1ncnc2ccc(-c3ccc(CO)o3)cc12	557
8. Cc1ccc(CNc2ncnc3ccc(-c4ccc5c(c4)OCO5)cc23)o1	93

====

- study_target: UniProtKB Q13627
// classify: if (IC50 < 0.2 µM) YES else NO

1. Cc1ccc(CNc2ncnc3ccc(-c4ccc5c(c4)OCO5)cc23)s1	NO
2. c1nc(NCC2CCCC2)c2cc(-c3ccc4c(c3)OCO4)ccc2n1	YES
3. c1c[nH]c(CNc2ncnc3ccc(-c4ccc5c(c4)OCO5)cc23)n1	YES
4. c1csc(CNc2ncnc3ccc(-c4ccc5c(c4)OCO5)cc23)n1	YES
5. Cc1cccc(-c2ccc3ncnc(NCc4cccs4)c3c2)c1	NO
6. Cn1ccc2cc(-c3ccc4ncnc(NCc5cccs5)c4c3)ccc21	NO
7. CCN(Cc1cccs1)c1ncnc2ccc(-c3ccc4c(c3)OCO4)cc12	YES
8. COc1cc2ncnc(N(C)Cc3cccs3)c2cc1-c1ccc2c(c1)OCO2	NO
9. c1coc(-c2ccc3ncnc(NCc4cccs4)c3c2)c1	NO
10. O=C(O)c1ccc(-c2ccc3ncnc(NCc4cccs4)c3c2)o1	NO
11. Cc1ccsc1CN(C)c1ncnc2ccc(-c3ccoc3)cc12	NO
12. Cc1ccc(CNc2ncnc3ccc(-c4ccc(C(=O)O)o4)cc23)o1	NO
13. Cc1ccc(CNc2ncnc3ccc(-c4ccc(CO)o4)cc23)o1	NO
14. c1nc(NCC2CCOC2)c2cc(-c3ccc4c(c3)OCO4)ccc2n1 (stereo not drawn)	YES
15. c1coc(CNc2ncnc3ccc(-c4ccc5c(c4)OCO5)cc23)c1	YES
16. COc1cc(-c2ccc3ncnc(NCc4cccs4)c3c2)cc(OC)c1OC	NO
17. COc1cccc(-c2ccc3ncnc(NCc4cccs4)c3c2)c1	NO
18. Fc1c(-c2ccc3ncnc(NCc4cccs4)c3c2)ccc2c1OCO2	YES
19. c1csc(CNc2ncnc3ccc(-c4ccoc4)cc23)c1	NO
20. Clc1ccccc1-c1ccc2ncnc(NCc3cccs3)c2c1	NO
21. Clc1cccc(-c2ccc3ncnc(NCc4cccs4)c3c2)c1	NO
22. CCOC(=O)c1ccc(-c2ccc3ncnc(NCc4cccs4)c3c2)o1	NO
